- Test system: UACC-257
- PROTOCOL DESCRIPTION: NCI tumour cell line growth inhibition, 48 h
Activity calls are given as the source filed them. Cut-off read from the data, not from the text of the source: active = GI50 up to about 1.1 µM and inactive = higher.
MEASUREMENT LABEL: GI50

Task item: Form field: GI50 recorded for CCc1ccccc1NC(=O)C1=C(C)NC(C)=C(C(=O)Nc2ccccc2CC)C1c1ccc2c(c1)OCO2 with UACC-257 (enter value)
Reply: 30.9 µM (inactive)

Task item: Form field: GI50 recorded for COc1ccc(-c2nc3ncccn3c2-c2ccc([S+](C)[O-])cc2)cc1 (stereo not drawn) with UACC-257 (enter value)
Reply: > 100 µM (inactive)

Task item: Form field: GI50 recorded for COc1ccc2c(c1)CC1Cc3ccccc3CCN1C2 (stereo not drawn) with UACC-257 (enter value)
Reply: 52.8 µM (inactive)

Task item: Form field: GI50 recorded for O=C1OC(C2OC(=O)c3cc(O)c(O)c(O)c3-c3c(O)c(O)c4oc(=O)c5c(c(O)c(O)c6oc(=O)c3c4c65)-c3c(cc(O)c(O)c3O)C(=O)OCC2O)C2OC(=O)c3c(c(O)c(O)c(O)c3[C@H]2O)-c2c1cc(O)c(O)c2O (stereo partly drawn) with UACC-257 (enter value)
Reply: 32 µM (inactive)

Task item: Form field: GI50 recorded for Nc1nc(=O)c2c([nH]1)NCC(CCNc1ccc(C(=O)O)cc1)N2 (stereo not drawn) with UACC-257 (enter value)
Reply: > 100 µM (inactive)

Task item: Form field: GI50 recorded for Cc1ccc(-c2c(C#N)c(-c3ccc(N(C)C)cc3)c(C#N)c(=O)n2NS(=O)(=O)c2ccccc2)cc1 with UACC-257 (enter value)
Reply: > 100 µM (inactive)

Task item: Form field: GI50 recorded for COc1cc(/C=C/C=C2\CC/C(=C\C=C\c3ccc(O)c(OC)c3)C2=O)ccc1O with UACC-257 (enter value)
Reply: > 100 µM (inactive)

Task item: Form field: GI50 recorded for Cc1ccc(S(=O)(=O)NC2CCCCO2)cc1 (stereo not drawn) with UACC-257 (enter value)
Reply: > 100 µM (inactive)

====

Would you mind telling me the reported GI50 of each entry?
- System: PC-3
- PROTOCOL DESCRIPTION: NCI tumour cell line growth inhibition, 48 h
Activity calls are given as the source filed them. Rule as the data show it: active = GI50 up to about 1.1 µM and inactive = higher.

Task item: Entry O=S(=O)(O)c1ccc2c(/N=N/c3ccc(/N=N/c4ccccc4)cc3)c(O)c(S(=O)(=O)O)cc2c1 : reported GI50 = ?
Reply: > 100 µM (inactive)

Task item: Entry C[C@]12CCC3=NCCN3C1=CC[C@@H]1[C@@H]2CC[C@@]2(C)[C@H]1CC[C@]2(C)O : reported GI50 = ?
Reply: 62.5 µM (inactive)

Task item: Entry OCC1OC(n2cnc3c2N=CNC[C@H]3O)C(Cl)C1O (some centres undefined) : reported GI50 = ?
Reply: > 100 µM (inactive)

Task item: Entry COC(=O)[C@H](C)NC(=O)[C@H](NS(=O)(=O)c1nc2ccccc2s1)c1ccccc1 : reported GI50 = ?
Reply: 38.8 µM (inactive)

Task item: Entry O=C(c1ccc(-c2ccccc2)cc1)N(Cc1cccnc1)C(=S)N(Cc1cccnc1)C(=O)c1ccc(-c2ccccc2)cc1 : reported GI50 = ?
Reply: > 100 µM (inactive)

Task item: Entry C=CCOc1ccc(C2C(C(=O)OC)C(=O)CC(O)(c3ccccc3)C2C(=O)OC)cc1OC (centres undefined) : reported GI50 = ?
Reply: 31.7 µM (inactive)

Task item: Entry CCCCOCCOC1=CC(=O)c2c(O)ccc(O)c2C1=O : reported GI50 = ?
Reply: 2.59 µM (inactive)

Task item: Entry C=CCP(=O)(CC=C)C(Cl)Cl : reported GI50 = ?
Reply: > 100 µM (inactive)

Task item: Entry CCC(c1ccc(OC)cc1)C1NC(=S)NC1=O (centres undefined) : reported GI50 = ?
Reply: > 50 µM (inactive)

Task item: Entry Cc1occc1C(=S)Nc1ccc(Cl)c(/C=N/OC(C)C)c1 : reported GI50 = ?
Reply: 24.9 µM (inactive)

Task item: Entry CC1=NN=C(N)N/C1=C\C(Sc1ccc(Cl)cc1)c1ccc([N+](=O)[O-])cc1 (centres undefined) : reported GI50 = ?
Reply: 66.7 µM (inactive)

Task item: Entry CC(=O)Nc1ccc(/N=N\c2c(O)c(S(=O)(=O)O)cc3cc(S(=O)(=O)O)ccc23)cc1 : reported GI50 = ?
Reply: > 100 µM (inactive)

Task item: Entry COc1cc(-c2coc3c(OC)c(OC4OC(CO)C(O)C(O)C4O)c(OC)cc3c2=O)cc(OC)c1C (centres undefined) : reported GI50 = ?
Reply: 7.01 µM (inactive)

Task item: Entry C=CCNC(=S)N/C=C(\C#N)C(N)=O : reported GI50 = ?
Reply: > 100 µM (inactive)

Task item: Entry O=C1c2ccccc2C(=O)c2c1ccc1nc3c(nc21)-c1c2ccccc2cc2cccc-3c12 : reported GI50 = ?
Reply: 41.9 µM (inactive)

Task item: Entry N#Cc1c(N2CCCC2)nsc1Nc1ccc(F)cc1 : reported GI50 = ?
Reply: > 100 µM (inactive)

Task item: Entry O=C1OC(C2OC(=O)c3cc(O)c(O)c(O)c3-c3c(O)c(O)c4oc(=O)c5c(c(O)c(O)c6oc(=O)c3c4c65)-c3c(cc(O)c(O)c3O)C(=O)OCC2O)C2OC(=O)c3c(c(O)c(O)c(O)c3[C@H]2O)-c2c1cc(O)c(O)c2O (some centres undefined) : reported GI50 = ?
Reply: 36.4 µM (inactive)

Task item: Entry C[C@@H](NC(=O)OC1C=CC2(CC1)C(=O)N(C)c1ccccc12)c1cccc2ccccc12 (some centres undefined) : reported GI50 = ?
Reply: > 25 µM (inactive)

Task item: Entry COc1nc2ccc(CNc3ccc(C(=O)NC(CCC(=O)O)C(=O)O)cc3)cc2nc1OC (centres undefined) : reported GI50 = ?
Reply: 44.6 µM (inactive)
